Measurement Target: BiP (UniProt P20029 20-655)
Sequence (P20029 20-655): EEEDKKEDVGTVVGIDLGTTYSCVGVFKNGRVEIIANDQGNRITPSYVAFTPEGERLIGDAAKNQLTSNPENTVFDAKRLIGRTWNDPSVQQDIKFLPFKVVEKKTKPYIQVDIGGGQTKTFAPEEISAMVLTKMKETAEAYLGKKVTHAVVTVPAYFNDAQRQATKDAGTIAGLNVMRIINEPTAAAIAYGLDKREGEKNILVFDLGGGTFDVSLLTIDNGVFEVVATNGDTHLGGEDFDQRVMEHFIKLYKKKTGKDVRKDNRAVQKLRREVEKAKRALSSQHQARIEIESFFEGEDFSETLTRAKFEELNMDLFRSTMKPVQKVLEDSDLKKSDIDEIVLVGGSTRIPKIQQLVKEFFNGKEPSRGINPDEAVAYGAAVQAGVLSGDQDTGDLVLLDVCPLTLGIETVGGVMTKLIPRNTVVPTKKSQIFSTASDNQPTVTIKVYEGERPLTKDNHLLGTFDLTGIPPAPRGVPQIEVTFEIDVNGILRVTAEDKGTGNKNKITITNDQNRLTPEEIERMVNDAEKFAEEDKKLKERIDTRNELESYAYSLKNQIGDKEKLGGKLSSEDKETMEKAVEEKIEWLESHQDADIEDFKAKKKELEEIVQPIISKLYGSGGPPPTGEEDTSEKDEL
Experiment: fluorescence polarisation
Ends that are not written are not given here. * marks the point of attachment. FITC = O=C1OC2(c3ccc(O)cc3Oc3cc(O)ccc32)c2ccc(NC(=S)*)cc21; Ahx = NCCCCCC(=O)O
Value Kind: pKd
To interpret pKd, take it as minus log10 of a concentration measured in moles per litre.

Provide only the value of recorded pKd for {FITC-Ahx}-DDFPRYPVGKFFQYDTWR [FITC-E-peptide 103-120]
6.34
